Kindly state ALKALINE PHOSPHATASE for each of the entries shown.
# Species: Rattus norvegicus
# procedure_details: DrugMatrix - Regimen: Daily Repeat
# Type: toxicity, organism-based, Sprague-Dawley
# Parameters: regimen Daily Repeat, gender Male, age 6-8 weeks
# stated_conditions: in vivo, po, 0 mg/kg, 120 h, tissue Plasma, route oral GAVAGE, dose level Control, time 5 day, vehicle .5 % CMC
Report only the number, with the unit u/L understood.

According to the records, this compound CCN(CC)CCOc1ccc(/C(=C(/Cl)c2ccccc2)c2ccccc2)cc1 displays ALKALINE PHOSPHATASE of 336

For CN(C)[C@@H]1C(O)=C(C(N)=O)C(=O)[C@@]2(O)C(O)=C3C(=O)c4c(O)ccc(Cl)c4[C@@](C)(O)[C@H]3C[C@@H]12 the compound record lists ALKALINE PHOSPHATASE as 382.5

According to the records, this compound CN/C(=N/CCSCc1nc[nH]c1C)NC#N displays ALKALINE PHOSPHATASE of 337

compound O=C1CN=C(c2ccccc2Cl)c2cc([N+](=O)[O-])ccc2N1 , ALKALINE PHOSPHATASE observed: 337

----------
# Organism: Rattus norvegicus
# procedure_details: DrugMatrix - Regimen: Daily Repeat
# Assay type: toxicity, organism-based, Sprague-Dawley
# Set-up: regimen Daily Repeat, gender Male, age 6-8 weeks
# stated_conditions: in vivo, po, 0 mg/kg, 120 h, tissue Blood, route oral GAVAGE, dose level Control, time 5 day, vehicle .5 % CMC
observable: NUCLEATED RED BLOOD CELLS

Value of NUCLEATED RED BLOOD CELLS reported for the compound COc1cc2nc(N3CCN(C(=O)c4ccco4)CC3)nc(N)c2cc1OC is 0 /100WBC

Notebook: O=C1Nc2ccc(Cl)cc2C(c2ccccc2Cl)=NC1O (stereo not given) , NUCLEATED RED BLOOD CELLS read as 0 /100WBC

The reported value for C[C@H]1O[C@@H](n2cc(F)c(=O)[nH]c2=O)[C@H](O)[C@@H]1O in terms of NUCLEATED RED BLOOD CELLS is 0 /100WBC

Form field NUCLEATED RED BLOOD CELLS, entry Cn1c(=O)c2c(ncn2CC(O)CO)n(C)c1=O (stereo not given) : 0.33 /100WBC

The value of NUCLEATED RED BLOOD CELLS measured for the compound O=C1CN=C(c2ccccc2Cl)c2cc([N+](=O)[O-])ccc2N1 turned out to be 0 /100WBC

response.value for CCN(CC)CCOc1ccc(/C(=C(/Cl)c2ccccc2)c2ccccc2)cc1 (field: NUCLEATED RED BLOOD CELLS) = 0.17 /100WBC

CN/C(=N/CCSCc1nc[nH]c1C)NC#N has a reported NUCLEATED RED BLOOD CELLS of 0 /100WBC

compound CN(C)[C@@H]1C(O)=C(C(N)=O)C(=O)[C@@]2(O)C(O)=C3C(=O)c4c(O)ccc(Cl)c4[C@@](C)(O)[C@H]3C[C@@H]12 , NUCLEATED RED BLOOD CELLS observed: 0.33 /100WBC

Recorded NUCLEATED RED BLOOD CELLS (compound O=C1C(CC[S+]([O-])c2ccccc2)C(=O)N(c2ccccc2)N1c1ccccc1 (stereo not given) ): 0 /100WBC

Value of NUCLEATED RED BLOOD CELLS reported for the compound COC1=C(OC)C(=O)C(CCCCCCCCCCO)=C(C)C1=O is 0 /100WBC

----------
# Species on record: Rattus norvegicus
# procedure_details: DrugMatrix - Regimen: Daily Repeat
# Assay type: toxicity, organism-based, Sprague-Dawley
# Set-up: regimen Daily Repeat, gender Male, age 6-8 weeks
# stated_conditions: in vivo, po, […], 120 h, tissue Blood, route oral GAVAGE, dose 7.5 mg/Kg, dose level High, time 5 day, vehicle 100 % SALINE
observable: ABSOLUTE EOSINOPHIL
State the value with its unit after it.

Form: compound = Nc1ncnc2c1ncn2[C@@H]1O[C@H](CO)[C@@H](O)[C@H]1F ; ABSOLUTE EOSINOPHIL = 120 cells/µL

----------
Hi there, I'd appreciate the recorded CHLORIDE for every entry that follows.
# Species on record: Rattus norvegicus
# procedure_details: DrugMatrix - Regimen: Daily Repeat
# Type: toxicity, organism-based, Sprague-Dawley
# Design: regimen Daily Repeat, gender Male, age 6-8 weeks
# stated_conditions: in vivo, po, 0 mg/kg, 72 h, tissue Plasma, route oral GAVAGE, dose level Control, time 3 day, vehicle .5 % CMC
All answers are understood in MEQ/L, so give the number only.

Noted for COc1cc2nc(N3CCN(C(=O)c4ccco4)CC3)nc(N)c2cc1OC : its CHLORIDE reads 100.83

Entry O=C1C(CC[S+]([O-])c2ccccc2)C(=O)N(c2ccccc2)N1c1ccccc1 (stereo not drawn) ; CHLORIDE = 100.83

For record NC1CCN(c2nc3c(cc2F)c(=O)c(C(=O)O)cn3-c2ccc(F)cc2F)C1 (stereo not drawn) the listed CHLORIDE is 107.33

The measured CHLORIDE associated with CN(C/C=C/C#CC(C)(C)C)Cc1cccc2ccccc12 reads 107.33

Sample C[C@H]1O[C@@H](n2cc(F)c(=O)[nH]c2=O)[C@H](O)[C@@H]1O ; CHLORIDE observed: 101

Record CNCCC(Oc1ccc(C(F)(F)F)cc1)c1ccccc1 (stereo not drawn) . Reported CHLORIDE: 99.33

Per the records, this molecule ( COc1ccc(C2C(=O)c3ccccc3C2=O)cc1 ) has CHLORIDE equal to 104.17

Query CN(C)[C@@H]1C(O)=C(C(N)=O)C(=O)[C@@]2(O)C(O)=C3C(=O)c4c(O)ccc(Cl)c4[C@@](C)(O)[C@H]3C[C@@H]12 yields CHLORIDE of 102.33

----------
Exercise: for every item that follows, state its recorded LEUKOCYTE COUNT.
# Species: Rattus norvegicus
# procedure_details: DrugMatrix - Regimen: Daily Repeat
# Assay type: toxicity, organism-based, Sprague-Dawley
# Set-up: regimen Daily Repeat, gender Male, age 6-8 weeks
# stated_conditions: in vivo, po, 2000 mg/kg, 72 h, tissue Blood, route oral GAVAGE, dose level High, time 3 day, vehicle .5 % CMC
Report the value in x10E3/uL with no unit label.

// LEUKOCYTE COUNT lookup, molecule = CN/C(=N/CCSCc1nc[nH]c1C)NC#N , result: 16.03

Looking up COc1cc2nc(N3CCN(C(=O)c4ccco4)CC3)nc(N)c2cc1OC , I see its LEUKOCYTE COUNT listed as 8.53

LEUKOCYTE COUNT reading for NC1CCN(c2nc3c(cc2F)c(=O)c(C(=O)O)cn3-c2ccc(F)cc2F)C1 (stereo unspecified) : 13.75

# LEUKOCYTE COUNT (molecule: O=C1Nc2ccc(Cl)cc2C(c2ccccc2Cl)=NC1O (stereo unspecified) ) is 12.97

Form: molecule = CN(C/C=C/C#CC(C)(C)C)Cc1cccc2ccccc12 ; LEUKOCYTE COUNT = 8.67

For CC1(C)S[C@@H]2[C@H](NC(=O)[C@H](N)c3ccccc3)C(=O)N2[C@H]1C(=O)O the molecule record lists LEUKOCYTE COUNT as 14.2

----------
# Organism: Rattus norvegicus
# procedure_details: DrugMatrix - Regimen: Daily Repeat
# Format: toxicity, organism-based, Sprague-Dawley
# Design: regimen Daily Repeat, gender Male, age 6-8 weeks
# stated_conditions: in vivo, po, […], 72 h, tissue Blood, route oral GAVAGE, dose 7.5 mg/Kg, dose level High, time 3 day, vehicle 100 % SALINE
observable: ABSOLUTE MONOCYTE (cells/µL)
Write it as a number; the unit cells/µL goes unstated.

The value of ABSOLUTE MONOCYTE measured for the compound Nc1ncnc2c1ncn2[C@@H]1O[C@H](CO)[C@@H](O)[C@H]1F turned out to be 370

----------
I'd appreciate it if you could supply PLATELET COUNT values for the items below.
# Species: Rattus norvegicus
# procedure_details: DrugMatrix - Regimen: Daily Repeat
# Assay type: toxicity, organism-based, Sprague-Dawley
# Set-up: regimen Daily Repeat, gender Male, age 6-8 weeks
# stated_conditions: in vivo, po, 0 mg/kg, 120 h, tissue Blood, route oral GAVAGE, dose level Control, time 5 day, […]
Give just the number in x10E3/uL; leave the unit off.

PLATELET COUNT recorded for this compound, COc1cc(N)c(Cl)cc1C(=O)NC1CCN(CCCOc2ccc(F)cc2)CC1OC (centres undefined) [CISAPRIDE] , is 941.83

PLATELET COUNT reported for this compound CO[C@H]1/C=C/O[C@@]2(C)Oc3c(C)c(O)c4c(O)c(c(/C=N/N5CCN(C6CCCC6)CC5)c(O)c4c3C2=O)NC(=O)/C(C)=C\C=C\[C@H](C)[C@H](O)[C@@H](C)[C@@H](O)[C@@H](C)[C@H](OC(C)=O)[C@@H]1C : 1233.5

Lab note: CC(C)(C)NC(=O)[C@H]1CC[C@H]2[C@@H]3CC[C@H]4NC(=O)C=C[C@]4(C)[C@H]3CC[C@]12C [FINASTERIDE] gave PLATELET COUNT of 1190

Field PLATELET COUNT (entry Clc1ccc(COC(Cn2ccnc2)c2ccc(Cl)cc2Cl)cc1 (centres undefined) ) reads 848.33
